Measured pKi on Mu-type opioid receptor (Homo sapiens) follows.
Sequence (P35372 whole entry): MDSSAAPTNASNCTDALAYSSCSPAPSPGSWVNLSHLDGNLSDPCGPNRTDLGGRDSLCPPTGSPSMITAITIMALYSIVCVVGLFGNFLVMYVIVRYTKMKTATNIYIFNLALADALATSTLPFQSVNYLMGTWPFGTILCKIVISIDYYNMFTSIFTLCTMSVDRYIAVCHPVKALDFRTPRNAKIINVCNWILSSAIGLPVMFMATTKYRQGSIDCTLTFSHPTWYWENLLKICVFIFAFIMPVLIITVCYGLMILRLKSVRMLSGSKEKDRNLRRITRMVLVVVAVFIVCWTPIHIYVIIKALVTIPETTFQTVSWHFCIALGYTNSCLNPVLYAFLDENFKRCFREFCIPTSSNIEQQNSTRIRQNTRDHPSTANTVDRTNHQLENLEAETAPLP
Would you please state pKi, meaning minus log10 of the concentration in mol/L, as a bare number?

In plain terms, Nc1nc2cc3c(cc2s1)C[C@@H]1[C@@H]2CCCC[C@]32CCN1CCCF has a documented pKi of 8.57

In plain terms, CN(C)c1nc2cc3c(cc2s1)C[C@@H]1[C@@H]2CCCC[C@]32CCN1CC1CC1 has a documented pKi of 8.00

In plain terms, CCCNc1nc2cc3c(cc2s1)C[C@@H]1[C@@H]2CCCC[C@]32CCN1CCCF has a documented pKi of 7.62

In plain terms, c1ccc(Nc2nc3cc4c(cc3s2)C[C@@H]2[C@@H]3CCCC[C@]43CCN2CC2CC2)cc1 has a documented pKi of 6.74

In plain terms, CC(=O)Nc1nc2cc3c(cc2s1)C[C@@H]1[C@@H]2CCCC[C@]32CCN1CCCF has a documented pKi of 7.82

In plain terms, CCNc1nc2cc3c(cc2s1)C[C@@H]1[C@@H]2CCCC[C@]32CCN1CC1CC1 has a documented pKi of 8.33

In plain terms, Oc1cccc(CNc2nc3cc4c(cc3s2)C[C@@H]2[C@@H]3CCCC[C@]43CCN2CC2CC2)c1 has a documented pKi of 8.00

In plain terms, CNc1nc2cc3c(cc2s1)C[C@@H]1[C@@H]2CCCC[C@]32CCN1CC1CCC1 has a documented pKi of 8.74

In plain terms, CN(C)c1nc2cc3c(cc2s1)C[C@@H]1[C@@H]2CCCC[C@]32CCN1CCCF has a documented pKi of 7.12
